Measured on: Interleukin-1 receptor-associated kinase 4 (Homo sapiens) (UniProt Q9NWZ3)
Sequence (Q9NWZ3 whole entry): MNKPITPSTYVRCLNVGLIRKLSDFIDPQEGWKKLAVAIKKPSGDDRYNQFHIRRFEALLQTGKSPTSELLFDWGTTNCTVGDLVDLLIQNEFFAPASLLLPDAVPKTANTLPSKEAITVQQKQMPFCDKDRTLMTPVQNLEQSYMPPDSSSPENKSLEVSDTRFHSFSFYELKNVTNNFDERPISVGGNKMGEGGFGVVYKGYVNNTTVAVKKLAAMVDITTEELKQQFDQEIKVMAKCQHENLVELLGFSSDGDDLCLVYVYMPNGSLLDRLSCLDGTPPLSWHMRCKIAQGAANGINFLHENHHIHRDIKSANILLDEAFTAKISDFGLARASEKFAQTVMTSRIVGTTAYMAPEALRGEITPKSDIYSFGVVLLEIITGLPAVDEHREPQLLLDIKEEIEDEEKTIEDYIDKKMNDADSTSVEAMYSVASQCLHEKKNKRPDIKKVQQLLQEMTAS
Condition info: at 1 µM
Metric: inhibition (%)
Please give a number only; it is taken to be in %.

CC1=C(C(=O)Nc2ccc3[nH]nc(C)c3c2)C(c2ccc(C(F)(F)F)cc2)CC(=O)N1 (centres undefined)
1.5
N#Cc1ccc2c(-c3ccnc(NC4CC4)n3)c(-c3ccc(F)cc3)nn2c1
-0.5
O=C1Nc2ccccc2/C1=C1\CCc2cc(O)ccc21
5.31

Query: Sample CS(=O)(=O)CCNCc1ccoc1-c1ccc2ncnc(Nc3ccc(OCc4ccccc4)cc3)c2c1 — what was its inhibition?
Response: 1.15

* * *

Listed here: items and their measured inhibition.
Measured on: Serine/threonine-protein kinase 10 (Homo sapiens)
Condition info: at 1 µM
Please give a number only; it is taken to be in %.

Please review the following examples before continuing.
CCN1CCC(C(=O)Nc2n[nH]c3nnc(-c4cccc(F)c4F)cc23)CC1
-0.07
CNC(=O)c1sc(-n2cnc3cc(OC)c(OC)cc32)cc1OCc1ccccc1C(F)(F)F
31.6
COc1cc2c(cc1Nc1nc(Nc3cccc(F)c3C(N)=O)c3cc[nH]c3n1)N(C(=O)CN1CCN(C(C)C)CC1)CC2
5.12
COc1ccccc1-c1cc(/C=C2\C(=O)Nc3ncc(Br)cc32)cc(Br)c1O
5.99
COC(=O)Nc1nc2ccc(Oc3ccc(NC(=O)Nc4cc(C(F)(F)F)ccc4F)cc3)cc2s1
55.4

Query: Provide the documented inhibition with Serine/threonine-protein kinase 10 (Homo sapiens) as the system for CN(C)CCNC(=O)Nc1ccc(N(C)c2ccnc(Nc3ccc(CS(C)(=O)=O)cc3)n2)cc1
Response: 36.7

Query: Please do the same for CCOc1ccc2c(-c3ccnc(Nc4cc(OC)cc(C(F)(F)F)c4)n3)cnn2n1 as well.
Response: 3.44
